Test system: biotinyl-Met-oxazolone
Protocol Details: self-aminoacylation, catalytic enhancement (BMO) (fold over background); higher = more active; k-Seq, kA / k0A0; sequences stand for … in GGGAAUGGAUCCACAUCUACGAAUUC…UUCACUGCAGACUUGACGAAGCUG
This sample holds only a part of the variants without activity.
Note to self: values exactly at 2 are 1. So self-aminoacylation at or above 2 is 1, below is 0.

Residue Codes	Target Of Assay	Discrete Label
CGACACAUCAAGCAAUCGGUC [Fam1B.1 aminoacylation ribozyme variant]	biotinyl-Met-oxazolone	0
AUUCACCUAGGUCAUCGGGCA [Fam2.2 aminoacylation ribozyme variant]	biotinyl-Met-oxazolone	1
AAGUUUGCCAAUAGUCGUAAG [Fam3.1 aminoacylation ribozyme variant]	biotinyl-Met-oxazolone	0
AUUACCCUGGUCAUAGAGUCA [Fam2.1 aminoacylation ribozyme variant]	biotinyl-Met-oxazolone	0
CUACUUCAAACCAUCGAUCUG [Fam1A.1 aminoacylation ribozyme variant]	biotinyl-Met-oxazolone	0
UCACACUUCGAGCAAUCGGUC [Fam1B.1 aminoacylation ribozyme variant]	biotinyl-Met-oxazolone	0

Given CUACUGCAAACAAUCGGUCUU [Fam1A.1 aminoacylation ribozyme variant] , state whether its self-aminoacylation is at least 2. 0

Test whether the sequence CAACACUUCAAGCUAUCGGUC [Fam1B.1 aminoacylation ribozyme variant] records self-aminoacylation of 2 or higher. 0

Does self-aminoacylation meet or surpass 2 for AUUCCCCUAGGUGAUCGGGUG [Fam2.2 aminoacylation ribozyme variant] ? 1

In plain terms: is recorded self-aminoacylation at least 2 for AUCACCCUGGUCAUCGGGUGA [Fam2.1 aminoacylation ribozyme variant] ? 1

Check if self-aminoacylation >= 2 (inclusive). Item: CCACACGUCAAGCACUCGGUC [Fam1B.1 aminoacylation ribozyme variant] 0

hey, is self-aminoacylation for this one >= 2? AUUACCGUGGACAUCGAGUGA [Fam2.1 aminoacylation ribozyme variant] 1

State whether the measured self-aminoacylation reaches 2, counting equality as reaching it, for ACGUUUGCUAAUAGUCGCAAC [Fam3.1 aminoacylation ribozyme variant] 0

Reported self-aminoacylation at or above 2? AAGUUUGCUAAUAGUCACAAC [Fam3.1 aminoacylation ribozyme variant] 0

Reported self-aminoacylation at or above 2? AAGUUUGCUAAUAUUCGCAAA [Fam3.1 aminoacylation ribozyme variant] 0

###

System: biotinyl-Phe-oxazolone
Protocol Details: self-aminoacylation, catalytic enhancement (BFO) (fold over background); higher = more active; k-Seq, kA / k0A0; sequences stand for … in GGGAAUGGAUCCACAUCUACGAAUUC…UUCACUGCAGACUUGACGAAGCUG
This sample holds only a part of the variants without activity.
The following sequences are shown together with reported self-aminoacylation values.
// return a plain number; no unit text

Below, each entry is followed by its recorded self-aminoacylation result.
Residue Codes	self-aminoacylation
AUUAACCUGGACAUCGAGUGA [Fam2.1 aminoacylation ribozyme variant]	32.9
AAGUUUGCUAAUAGACGCACG [Fam3.1 aminoacylation ribozyme variant]	0.811
AAAUUUUCUAAUAGUCGCAAG [Fam3.1 aminoacylation ribozyme variant]	2.42
AAAUUUGCUAAUAGUCCCAAG [Fam3.1 aminoacylation ribozyme variant]	1.68
ACUACCCUGGUCACCGAGUGA [Fam2.1 aminoacylation ribozyme variant]	46.5

Tell me the measured self-aminoacylation of AAGUUUGCCAAUAGUCGUAAG [Fam3.1 aminoacylation ribozyme variant] , please. 1.38

Need self-aminoacylation of CUACUUCAAAAAAUCGGUCAG [Fam1A.1 aminoacylation ribozyme variant] , thanks. 3.51

// lookup self-aminoacylation for AUUCACCUAGGUCAUCCGGUU [Fam2.2 aminoacylation ribozyme variant] 9.74

Which self-aminoacylation value is on record for CAGCACUUCAAGCAAUCGGUC [Fam1B.1 aminoacylation ribozyme variant] ? 34.4

Given the entry CUACUUCUAACAAUCGGUCGG [Fam1A.1 aminoacylation ribozyme variant] , report its measured self-aminoacylation. 0.725

What value of self-aminoacylation has been reported for the following sequence? CAACUUCAACCAAUCGGUCUG [Fam1A.1 aminoacylation ribozyme variant] 66.9

Entry under review: GUUCACCUAGGUCAUUGGGUG [Fam2.2 aminoacylation ribozyme variant] . Reported self-aminoacylation? 8.92

// lookup self-aminoacylation for CAACUUCAAACAAUCGAUCUG [Fam1A.1 aminoacylation ribozyme variant] 3.33

Please look up its self-aminoacylation: AUUGACCUAGGUCAUCUGGUG [Fam2.2 aminoacylation ribozyme variant] 8.46

Need self-aminoacylation, item CUAAUUCAAACAAUCGGUUUG [Fam1A.1 aminoacylation ribozyme variant] 3.96

# input sequence: AUUUCCGUGGUCAUCGAGUGA [Fam2.1 aminoacylation ribozyme variant] ; wanted: its self-aminoacylation 52.8

What value of measured self-aminoacylation is listed for AAGUUUGCUAAUAGUCACAAC [Fam3.1 aminoacylation ribozyme variant] ? 1.47

Fill in: self-aminoacylation of AUUACUCUCGUCAUCGAGUGA [Fam2.1 aminoacylation ribozyme variant] is ___ 8.87

Can you look up the measured self-aminoacylation of AUUCACCUAGGUCUUUGGGUG [Fam2.2 aminoacylation ribozyme variant] for me? 56.1

Could you share which self-aminoacylation value was measured for GUACUGCAAACAAUCGGUCUG [Fam1A.1 aminoacylation ribozyme variant] ? 3.7

Find the recorded self-aminoacylation belonging to AAGUUUAAUAAUAGUCGCAAG [Fam3.1 aminoacylation ribozyme variant] and report it. 2.22

GET /values?readout=self-aminoacylation&item= AUUACCCUGGUCAUCGAGAGG [Fam2.1 aminoacylation ribozyme variant] 2.47

Would you mind telling me what self-aminoacylation value was observed for CUACUUCAAAAAUUCGGUCUG [Fam1A.1 aminoacylation ribozyme variant] ? 3.5

Bench note: what self-aminoacylation did AUUGCCCUGGUCAUCGAGUGG [Fam2.1 aminoacylation ribozyme variant] show? 197

Looking for the measured self-aminoacylation of CCACAUUUCAACCAAUCGGUC [Fam1B.1 aminoacylation ribozyme variant] , can you help? 7.78

// self-aminoacylation lookup, key: AAGUUUGCAAAUAGUCGAAAG [Fam3.1 aminoacylation ribozyme variant] 1.58

Need self-aminoacylation of AUUACCCUGGACACCGAGUGA [Fam2.1 aminoacylation ribozyme variant] , thanks. 4.62

# lookup: self-aminoacylation of CCACGUUUCAAGCAAUCGGUC [Fam1B.1 aminoacylation ribozyme variant] 77.2

Value lookup for self-aminoacylation; key = CUUCUUCAGACAAUCGGUCUG [Fam1A.1 aminoacylation ribozyme variant] 0.958

Returns the measured self-aminoacylation for the input sequence. Input: AUUCAUCUAGGUCAUCGGGAG [Fam2.2 aminoacylation ribozyme variant] 0.786
